Data origin: ChEMBL document CHEMBL4689842

Tested on: U2OS
Test: Multiplex assay against U2OS
Assay type: toxicity, cell-based
Conditions: human, 12 h, 10 µM, compound concentration 10 uM, replicate 1
# if value of Population Apoptotic (%) reaches 30%, tag TRUE; if it stays below, tag FALSE

test_smiles	class_name
Cc1c(Nc2ccc(S(=O)(=O)N3CCN(C)CC3)cc2F)nc2ccc(Nc3cnn(C4CC4)c3)cn2c1=O	FALSE
C[C@@H](Oc1cc(-n2cnc3ccc(CN4CCN(C)CC4)cc32)sc1C(N)=O)c1ccccc1C(F)(F)F	TRUE
Cc1ccc(NC(=O)Nc2cc(C(F)(F)F)ccc2F)cc1Nc1ccc2c(c1)NC(=O)/C2=C\c1ccc[nH]1	FALSE
Cc1c(P(=S)(c2ccccc2)c2ccccc2)n2ccccc2[n+]1C/C=C/c1ccccc1.[Br-]	TRUE

For this compound, is measured Population Apoptotic (%) 30% or higher? `CC[C@@H]1C(=O)N(C)c2cnc(Nc3ccc(C(=O)NC4CCN(C)CC4)cc3OC)nc2N1C1CCCC1`
TRUE

---

System: U2OS
Assay: Multiplex assay against U2OS
Assay type: toxicity, cell-based
Details: human, 24 h, 1 µM, compound concentration 1 uM, replicate 2
Entries are sorted into classes by Population Mitochondria Different-Phenotype (%) as follows: category 1 (below 10%), category 2 (10% to below 30%), category 3 (30% or more)

Consider the worked cases shown below.
molecule	assay_system	class_name
NC(=O)c1ccc2nc(-c3ccc(C4(N)CCC4)cc3)c(-c3ccccc3)n2n1 [BAY-1125976]	U2OS	category 2
Oc1cccc(-c2nc(N3CCOCC3)c3oc4ncccc4c3n2)c1 [PI-103]	U2OS	category 1
CC(C)c1cc(Nc2nc(N3CCC[C@H](N)C3)ncc2C(N)=O)cc(C(C)C)n1	U2OS	category 3
CN(c1cc(C(F)(F)F)nc(OCCC(=O)O)n1)c1cccc2c1CCC2	U2OS	category 2
CCCCN(CC)c1nc(C)nc2c1c(C)cn2-c1c(C)cc(C)cc1C.Cl	U2OS	category 1

Band for the recorded Population Mitochondria Different-Phenotype (%) of CC(Cc1ccc(O)c(O)c1)C(C)Cc1ccc(O)c(O)c1 (stereo unspecified) [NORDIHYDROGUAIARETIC ACID] ?
category 1

In plain terms, what class is CC(C)[C@H](CO)Nc1nc(Nc2cccc(Cl)c2)c2ncn(C(C)C)c2n1 [PURVALANOLA] ?
category 2

Field: class (Population Mitochondria Different-Phenotype (%)) — entry: `C=CC(=O)Nc1cc(-n2c(=O)ccc3cnc4ccc(-c5ccc(NS(C)(=O)=O)cc5)cc4c32)ccc1C`
category 2

Place this molecule in its band: CC[C@H](Nc1ncnc2[nH]cnc12)c1nc2cccc(F)c2c(=O)n1-c1ccccc1 [IDELALISIB]
category 2

Which band does `N#Cc1cccc(C(=O)Nc2cc(-c3ccccc3)nn2-c2ccccc2)c1` fall in?
category 1

Please report the category associated with C[C@@H](Oc1cc(-n2cnc3ccc(CN4CCN(C)CC4)cc32)sc1C(N)=O)c1ccccc1C(F)(F)F [GSK-461364] , nothing else.
category 3

Assign a category based on measured Population Mitochondria Different-Phenotype (%) for CC[C@@H]1C(=O)N(C)c2cnc(Nc3ccc(C(=O)NC4CCN(C)CC4)cc3OC)nc2N1C1CCCC1 [BI-2536] and give only the class name.
category 3

Which class holds `CCCc1cc(C)[nH]c(=O)c1CNC(=O)c1cc(-c2ccc(N3CCN(C(C)C)CC3)nc2)cc2c1cnn2C(C)C` ?
category 3

Record `Cc1ccc(NC(=O)Nc2cc(C(F)(F)F)ccc2F)cc1Nc1ccc2c(c1)NC(=O)/C2=C\c1ccc[nH]1` — which class?
category 2

Tag the class for CCCCCNC(=N)N/N=C/c1c[nH]c2ccc(OC)cc12.O=C(O)/C=C\C(=O)O [TEGASEROD MALEATE]
category 2
